Assay text: Binding affinity to HIV-1 CA-SP1 cleavage site of Gag-Pol protein harboring V370A mutant assessed as inhibition of HIV-1 maturation
Design: species or system Human immunodeficiency virus 1
Readout name: pEC50
API: returns pEC50 as number; meaning -log10 of concentration in mol/L.

Incoming: What value of pEC50 has been recorded for this entry: `C=C(C)[C@@H]1CC[C@]2(C(=O)NCCC(C)C)CC[C@]3(C)[C@H](CC[C@@H]4[C@@]5(C)CC=C(c6ccc(C(=O)O)cc6)C(C)(C)[C@@H]5CC[C@]43C)[C@@H]12`
Outgoing: 7.00

Incoming: Would you kindly share the measured pEC50 for `C=C(C)[C@@H]1CC[C@]2(C(=O)NCCNC(C)=O)CC[C@]3(C)[C@H](CC[C@@H]4[C@@]5(C)CC=C(c6ccc(C(=O)O)cc6)C(C)(C)[C@@H]5CC[C@]43C)[C@@H]12` ?
Outgoing: 7.62

Incoming: Endpoint output: pEC50 of C=C(C)[C@@H]1CC[C@]2(NCCN3CCS(=O)(=O)CC3)CC[C@]3(C)[C@H](CC[C@@H]4[C@@]5(C)CC=C(c6ccc(C(=O)O)cc6)C(C)(C)[C@@H]5CC[C@]43C)[C@@H]12 [BMS-955176] . Value?
Outgoing: 8.52
